experiment: RP, Waters ACQUITY UPLC HSS C18, 100 × 2.1 mm, 1.7 µm, 40 °C, 0.35 mL/min, estimated dead time 0.63 min; A: water + 0.1% formic acid; B: methanol + 0.1% formic acid; gradient (min/%B) 0/0.5 4/70 4.5/98 5.4/98; details: stereoisomer not certain
valueType: LC retention time (min)

Known results for compounds:
Supply LC retention time value. Item: COc1ccc2[nH]cc(CCNC(C)=O)c2c1
4.05

Supply LC retention time value. Item: NC(=O)NC1NC(=O)NC1=O (centres undefined)
0.855

Supply LC retention time value. Item: Nc1cc(O)cc(C(=O)O)c1
1.32

Supply LC retention time value. Item: NC12CC3CC(CC(C3)C1)C2
3.49

Supply LC retention time value. Item: COc1ccc(CCN(C)CCCC(C#N)(c2ccc(OC)c(OC)c2)C(C)C)cc1OC (centres undefined)
4.54

1: CC(C)=CCNc1ncnc2nc[nH]c12
2: CCCCC(N)C(=O)O (centres undefined)
Pick the one with the larger LC retention time: 1 vs 2 Give the label under which the chosen entry appears.
1

A: CC=C(C)C(=O)NCC(=O)O
B: Cc1cccc(C(=O)O)c1O
Looking only at measured LC retention time, which entry is lower, A or B ? Give the label under which the chosen entry appears.
A
(A: 2.9 min, B: 5.29 min)

a: CCCCNC(=O)NS(=O)(=O)c1ccc(C)cc1
b: O=C(O)CNC(=O)Cc1ccccc1
Looking only at measured LC retention time, which entry is lower, a or b ? Give the label under which the chosen entry appears.
b

1: CC(C)NCC(O)COc1cccc2ccccc12 (centres undefined)
2: O=C(O)c1ccncc1
Looking only at measured LC retention time, which entry is lower, 1 or 2 ? Give the label under which the chosen entry appears.
2
